- procedure.details: recombinant UMI read abundance after kanamycin selection (control-corrected) (log10(CPM+1)); higher = more efficient recombination; extreme values may be limits of the assay; sequences stand for … in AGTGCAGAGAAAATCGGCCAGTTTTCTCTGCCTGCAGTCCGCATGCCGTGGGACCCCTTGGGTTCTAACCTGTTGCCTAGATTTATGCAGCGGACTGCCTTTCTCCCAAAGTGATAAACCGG…AGGTTGGTTTCACT; site = the 11-nt donor;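 note: IS621 bridge recombinase in Escherichia coli cells against a fixed T5 target plasmid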
readout: recombinant UMI read abundance (log10)
When you answer, write just the number.

// recombinant UMI read abundance (log10) lookup, sequence = TAGCGAGCATGGACCGGTTTTCCCGGTAATCCGTATTTGAA (site TAGCCAGCTTT) , result: 0.0145

// recombinant UMI read abundance (log10) lookup, sequence = AATATGTCATGGACCGGTTTTCCCGGTAATCCGTATTTGAC (site AATCTGTCTGT) , result: 0

// recombinant UMI read abundance (log10) lookup, sequence = AGATCATCATGGACCGGTTTTCCCGGTAATCCGTATTTGCT (site CGATCATCTAG) , result: 0.477

// recombinant UMI read abundance (log10) lookup, sequence = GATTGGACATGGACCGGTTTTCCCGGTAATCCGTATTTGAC (site GATTGGCCTGT) , result: 0

// recombinant UMI read abundance (log10) lookup, sequence = GAGGCACCATGGACCGGTTTTCCCGGTAATCCGTATTTGCA (site GAGGCACCTTG) , result: 0.344

// recombinant UMI read abundance (log10) lookup, sequence = AGGAATACATGGACCGGTTTTCCCGGTAATCCGTATTTGCT (site AGGAAGACTTG) , result: 0

// recombinant UMI read abundance (log10) lookup, sequence = CGGAAGCCATGGACCGGTTTTCCCGGTAATCCGTATTTGTT (site CGGAATCCTAA) , result: 0

// recombinant UMI read abundance (log10) lookup, sequence = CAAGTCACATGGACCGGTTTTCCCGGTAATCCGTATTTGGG (site CAACTCACTCC) , result: 0.177

// recombinant UMI read abundance (log10) lookup, sequence = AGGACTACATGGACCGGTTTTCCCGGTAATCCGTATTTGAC (site AGGACAACTGT) , result: 0.797

// recombinant UMI read abundance (log10) lookup, sequence = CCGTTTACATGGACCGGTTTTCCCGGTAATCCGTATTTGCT (site CCGTTTTCTAG) , result: 0

// recombinant UMI read abundance (log10) lookup, sequence = CTAGAAACATGGACCGGTTTTCCCGGTAATCCGTATTTGAC (site CTAGAAACTGT) , result: 2.76

// recombinant UMI read abundance (log10) lookup, sequence = ATAGTTTCATGGACCGGTTTTCCCGGTAATCCGTATTTGCA (site ACAGTATCTTG) , result: 1.49

// recombinant UMI read abundance (log10) lookup, sequence = CAGCACGCATGGACCGGTTTTCCCGGTAATCCGTATTTGGT (site CAGCACGCTAC) , result: 1.61

// recombinant UMI read abundance (log10) lookup, sequence = GGTTCGTCATGGACCGGTTTTCCCGGTAATCCGTATTTGTT (site GGTTCGTCTAA) , result: 0.351

// recombinant UMI read abundance (log10) lookup, sequence = TAAGTCACATGGACCGGTTTTCCCGGTAATCCGTATTTGGG (site GAAGTCACTCC) , result: 0.00751

// recombinant UMI read abundance (log10) lookup, sequence = CTCTAGACATGGACCGGTTTTCCCGGTAATCCGTATTTGCT (site CTCTACACTAG) , result: 0.119

// recombinant UMI read abundance (log10) lookup, sequence = TCCCCAACATGGACCGGTTTTCCCGGTAATCCGTATTTGTT (site TCCCCAACTAA) , result: 0.0153

// recombinant UMI read abundance (log10) lookup, sequence = TCCGATTCATGGACCGGTTTTCCCGGTAATCCGTATTTGCC (site TCCAATTCTGG) , result: 0

// recombinant UMI read abundance (log10) lookup, sequence = GTATGGCCATGGACCGGTTTTCCCGGTAATCCGTATTTGCA (site GCATGGCCTTG) , result: 0

// recombinant UMI read abundance (log10) lookup, sequence = TCCTAGGCATGGACCGGTTTTCCCGGTAATCCGTATTTGGT (site TGCTAGGCTAC) , result: 0.0178

* * *

- procedure.details: recombinant UMI read abundance after kanamycin selection (control-corrected) (log10(CPM+1)); higher = more efficient recombination; extreme values may be limits of the assay; sequences stand for … in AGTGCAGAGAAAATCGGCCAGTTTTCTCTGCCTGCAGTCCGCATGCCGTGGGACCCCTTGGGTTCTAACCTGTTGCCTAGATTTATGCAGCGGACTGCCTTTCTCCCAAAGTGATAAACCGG…AGGTTGGTTTCACT; site = the 11-nt donor
readout: recombinant UMI read abundance (log10)
When you answer, write just the number.

// recombinant UMI read abundance (log10) lookup, sequence = ACAAATCCATGGACCGGTTTTCCCGGTAATCCGTATTTGAC (site ACATATCCTGT) , result: 0

// recombinant UMI read abundance (log10) lookup, sequence = TGTTCTCCATGGACCGGTTTTCCCGGTAATCCGTATTTGTA (site TGTTCTCCTTA) , result: 0.679

// recombinant UMI read abundance (log10) lookup, sequence = AACCGCCCATGGACCGGTTTTCCCGGTAATCCGTATTTGAA (site AACCGCCCTTT) , result: 0.156

// recombinant UMI read abundance (log10) lookup, sequence = TCATCAGCATGGACCGGTTTTCCCGGTAATCCGTATTTGAT (site TCATCAGCTAT) , result: 0.316

// recombinant UMI read abundance (log10) lookup, sequence = CCTAGTGCATGGACCGGTTTTCCCGGTAATCCGTATTTGGT (site ACTAGTGCTAC) , result: 0.00584

// recombinant UMI read abundance (log10) lookup, sequence = AGAAACACATGGACCGGTTTTCCCGGTAATCCGTATTTGGT (site AGAAACACTAC) , result: 2.3

// recombinant UMI read abundance (log10) lookup, sequence = TGGCGAGCATGGACCGGTTTTCCCGGTAATCCGTATTTGTT (site TGGCGAGCTAA) , result: 1.04

// recombinant UMI read abundance (log10) lookup, sequence = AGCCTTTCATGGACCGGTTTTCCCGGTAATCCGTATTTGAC (site AGGCTTTCTGT) , result: 0

// recombinant UMI read abundance (log10) lookup, sequence = GAGCACACATGGACCGGTTTTCCCGGTAATCCGTATTTGAT (site GAGCTCACTAT) , result: 0

// recombinant UMI read abundance (log10) lookup, sequence = AGAGTGGCATGGACCGGTTTTCCCGGTAATCCGTATTTGCT (site AGAGTGGCTAG) , result: 2.62

// recombinant UMI read abundance (log10) lookup, sequence = AAACGGGCATGGACCGGTTTTCCCGGTAATCCGTATTTGCG (site AAACGGGCTCG) , result: 0.661

// recombinant UMI read abundance (log10) lookup, sequence = ACAGCTTCATGGACCGGTTTTCCCGGTAATCCGTATTTGCA (site ACAGTATCTTG) , result: 2.16

// recombinant UMI read abundance (log10) lookup, sequence = TACTTGGCATGGACCGGTTTTCCCGGTAATCCGTATTTGCT (site TACTTGGCTAG) , result: 0.00377

// recombinant UMI read abundance (log10) lookup, sequence = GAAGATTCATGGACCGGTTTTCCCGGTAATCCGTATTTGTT (site GAAGATTCTGA) , result: 0

// recombinant UMI read abundance (log10) lookup, sequence = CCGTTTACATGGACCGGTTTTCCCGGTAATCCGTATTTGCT (site CCGGTTACTAG) , result: 0

* * *

- procedure.details: recombinant UMI read abundance after kanamycin selection (control-corrected) (log10(CPM+1)); higher = more efficient recombination; extreme values may be limits of the assay; sequences stand for … in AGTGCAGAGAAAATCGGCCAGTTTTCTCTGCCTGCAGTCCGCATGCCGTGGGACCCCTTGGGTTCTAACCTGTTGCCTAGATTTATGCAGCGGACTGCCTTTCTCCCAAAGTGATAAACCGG…AGGTTGGTTTCACT; site = the 11-nt donor
For each entry below, report its recombinant UMI read abundance (log10) value.
When you answer, write just the number.

// recombinant UMI read abundance (log10) lookup, sequence = CGTGCGGCATGGACCGGTTTTCCCGGTAATCCGTATTTGGA (site CGTGCGGCTTC) , result: 0.167

// recombinant UMI read abundance (log10) lookup, sequence = CGCCATCCATGGACCGGTTTTCCCGGTAATCCGTATTTGTT (site CGGAATCCTAA) , result: 0

// recombinant UMI read abundance (log10) lookup, sequence = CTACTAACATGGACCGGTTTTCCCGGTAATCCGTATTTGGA (site CTACCAACTTC) , result: 0.307

// recombinant UMI read abundance (log10) lookup, sequence = TGCCTAGCATGGACCGGTTTTCCCGGTAATCCGTATTTGTT (site GGCCTAGCTAA) , result: 0.0245

// recombinant UMI read abundance (log10) lookup, sequence = CTGCTTCCATGGACCGGTTTTCCCGGTAATCCGTATTTGCT (site CTGCTTCCTAG) , result: 1.73

// recombinant UMI read abundance (log10) lookup, sequence = AGGACGGCATGGACCGGTTTTCCCGGTAATCCGTATTTGAA (site AGGACGGCTTT) , result: 1.73

// recombinant UMI read abundance (log10) lookup, sequence = CTTCTATCATGGACCGGTTTTCCCGGTAATCCGTATTTGTA (site CTTCTTTCTTA) , result: 0

// recombinant UMI read abundance (log10) lookup, sequence = TTAGTCGCATGGACCGGTTTTCCCGGTAATCCGTATTTGCG (site ATAGTCGCTCG) , result: 0.0346

// recombinant UMI read abundance (log10) lookup, sequence = GCGTGCCCATGGACCGGTTTTCCCGGTAATCCGTATTTGAT (site GCCTGCCCTAT) , result: 0.0179

// recombinant UMI read abundance (log10) lookup, sequence = AGGAGGGCATGGACCGGTTTTCCCGGTAATCCGTATTTGCC (site AGGAGGGCTGG) , result: 2.16

// recombinant UMI read abundance (log10) lookup, sequence = GACTATCCATGGACCGGTTTTCCCGGTAATCCGTATTTGCT (site GAATATCCTAG) , result: 0.00525
